Data origin: PubChem BioAssay (NCI)

# TGI values compiled below
System: NCI-H226 lung
Assay: NCI tumour cell line growth inhibition, 48 h

Use the examples below as a reference point.
| Compound | System | TGI |
| --- | --- | --- |
| CN1CCN(CN2C(=O)C3C4C=CC(C3C2=O)C2C(=O)N(CN3CCN(C)CC3)C(=O)C42)CC1 (centres undefined) | NCI-H226 lung | > 100 µM |
| CCOC(=O)NC1CN2CCC1CC2 (centres undefined) | NCI-H226 lung | > 100 µM |
| CC(NNC(=O)CC(=O)N(C(=O)c1ccccc1)c1ccc(Cl)cc1)c1cc2ccccc2oc1=O (centres undefined) | NCI-H226 lung | > 10 µM |
| COc1cccc2c1C(=O)c1c(O)c3c(c(O)c1C2=O)CC(O)(/C(C)=N/NC(=O)CCC(=O)N/N=C(\C)C1(O)Cc2c(O)c4c(c(O)c2C(OC2CC(N)C(O)C(C)O2)C1)C(=O)c1c(OC)cccc1C4=O)CC3OC1CC(N)C(O)C(C)O1 (centres undefined) | NCI-H226 lung | 1.39 µM |
| O=C1CC(C[C@H](O)C2CCCCC2O)CC(=O)N1Cc1ccccc1 (some centres undefined) | NCI-H226 lung | > 100 µM |

As a next step, examine the compound that follows.
Exercise: For the compound COC1[C@@H](OC(C)=O)[C@@H](NC(=O)C(Cl)(Cl)Cl)C(I)[C@@H](N2C(=O)c3ccccc3C2=O)[C@H]1OC (some centres undefined) , give its measured TGI value.
Key: > 100 µM

----------
Items are presented alongside their recorded TGI.
Tested on: HOP-62 NSCLC
Assay: NCI tumour cell line growth inhibition, 48 h
Numbers only; they are read as µM.

| Compound | TGI (µM) |
| --- | --- |
| Cc1ccsc1/C=N/Nc1ccc2ccccc2n1 | 68.8 |
| COc1cc(-c2nn(-c3cccc(NC(=O)Nc4ccc(Cl)c(Cl)c4)c3)cc2-c2ccncc2)ccc1Cl | 4.9 |

Read the next record carefully.
Exercise: Identify measured TGI corresponding to CCC1C2C=CC(CC2)N1S(=O)(=O)c1ccc(C)cc1 (centres undefined)
Key: 76.3

----------
Tested on: NCI-H226 lung
Test: NCI tumour cell line growth inhibition, 48 h
Value Type: log10 of TGI (log10 of the value in µM)
All values: log10 TGI [µM].

Example cases with answers are listed next.
| Compound | Value Type | Readout Number |
| --- | --- | --- |
| COc1cccc2c1C(=O)c1c(O)c3c(c(O)c1C2=O)C[C@@](O)(C(=O)CO)C[C@@H]3OC1CC(N)C(OC)C(C)O1 (stereo partly drawn) | log10 of TGI | -0.33 |
| CCCCCCNC(=O)c1nc(-c2ccccc2)oc1Cc1ccc(OP(=O)(O)O)cc1 | log10 of TGI | 1.53 |
| Cn1c(=O)c2c(no[n+]2[O-])c2ccccc21 | log10 of TGI | 1.61 |
| Cc1ccc(/C=C/c2c(C(=O)/C=C/c3ccc(C(F)(F)F)cc3)c(C)nc3ccccc23)cc1 | log10 of TGI | 0.48 |

Exercise: Answer with reported log10 of TGI of CCC1C2C=CC(CC2)N1S(=O)(=O)c1ccc(C)cc1 (stereo not drawn)
Key: 1.53

Exercise: Supply log10 of TGI value. Item: CC(=O)OC1O[C@@H](C(C)(C)O)CC[C@@H]1[C@H]1CC[C@@]2(C)C3=C(CC[C@]12C)[C@@]1(C)C[C@@H](OC(=O)CC(C)(O)CC(=O)O)[C@H](OC(C)=O)C(C)(C)C1CC3 (stereo partly drawn)
Key: 1.70

----------
System: MDA-MB-231 breast
Assay: NCI tumour cell line growth inhibition, 48 h
Value Type: TGI

Consider the worked cases shown below.
| Compound | Result |
| --- | --- |
| CCN(CC)c1nc(-c2ccc(Cl)cc2Cl)nc2ccccc12 | 23.2 µM |
| O=c1c2ccccc2sc2cccc(NCCCN3CCN(CCCNc4cccc5sc6ccccc6c(=O)c45)CC3)c12 | > 100 µM |
| CCN(CC)CCOc1ccc(/C=C2\CC3C4CC=C5C[C@@H](O)CC[C@]5(C)C4CC[C@]3(C)C2=O)cc1OC (some centres undefined) | 7.38 µM |
| CC(C)C1=C(Cc2ccccc2)C(=O)O/C1=C\c1cc(Cl)c(O)c(Cl)c1 | 33.8 µM |

Exercise: # return recorded TGI for entry COC1C(O)=C2C(=O)O/C(C)=C/C=C/C=C/C=C\CC(c3ccccc3)NC(=O)\C=C/C=C\C=C\C=C\[C@@]2(C)[C@@H]1O (some centres undefined)
Key: 0.0896 µM

Exercise: Fill in TGI for record CC(=O)OC12c3ccccc3-c3ccccc3C1C1C(=O)N(C)C(=O)C12Cl (centres undefined)
Key: > 10 µM

----------
Tested on: SF-539 CNS
Assay: NCI tumour cell line growth inhibition, 48 h; in the data active = GI50 below about 0.43 µM; inactive = the rest
The categories you may choose from are active, inactive

| Molecule | Classification |
| --- | --- |
| CCCn1c(N)c(C(=O)N/N=C(/C)c2cc3cccc(OC)c3o2)sc1=S | inactive |

Exercise: For this molecule, state the assay outcome: "Cc1ccc(Cl)cc1Nc1nc(C(F)(F)F)ccc1C(=O)N1CCN(c2cccc(Cl)c2)CC1"
Key: inactive

Exercise: For "Cc1nc2cnc(N)c(C#Cc3cncc(C(=O)Nc4ccc(CN5CCN(C)CC5)c(C(F)(F)F)c4)c3)c2nc1C" , which call appears in the assay record?
Key: active

Exercise: I would be grateful if you could indicate the recorded call for "COC12C=C/C(=C(/C(=O)OCc3ccncc3)C(=O)CCCCCCCCC3(OC)C=C/C(=C(/C(=O)OCc4ccncc4)C(=O)CCCCCCCC1)O3)O2" .
Key: inactive

Exercise: Entry CCN(CC)CCOc1ccc(/C=C2\CC3C4CC=C5C[C@@H](O)CC[C@]5(C)C4CC[C@]3(C)C2=O)cc1OC (some centres undefined) : call = ?
Key: inactive

Exercise: Given "Cc1csc(Nc2nc(-c3cccc(Br)c3)nc(C(Cl)(Cl)Cl)n2)n1" , state the outcome it received in this test.
Key: inactive

----------
Documented TGI across a set of compounds
Tested on: SK-OV-3 ovarian
Assay: NCI tumour cell line growth inhibition, 48 h
Respond numerically; units are µM and should not be typed.

| Structure Smiles | Value Type | Readout Number |
| --- | --- | --- |
| O=C(CC(O)(C(F)(F)F)C(F)(F)F)c1cc(CC(=O)C(O)(C(F)(F)F)C(F)(F)F)cc(CC(=O)C(O)(C(F)(F)F)C(F)(F)F)c1 | TGI | 9.55 |

Next:
Exercise: Return value of TGI for input "Cc1cn2c(/C=C3\C(=O)Nc4ccc(O)cc43)c(-c3ccc(Cl)cc3)nc2s1" , no commentary.
Key: 62.7

----------
Tested on: SK-OV-3 ovarian
Assay: NCI tumour cell line growth inhibition, 48 h
TGI values, listed per item

| Compound | System | Value Type | Result |
| --- | --- | --- | --- |
| CC(=O)Nc1ccc(-c2nc3cc(Cl)ccc3o2)cc1 | SK-OV-3 ovarian | TGI | > 50 µM |
| O=C(CC(=O)c1ccccc1)CC(O)(c1ccccc1)c1ccccc1 | SK-OV-3 ovarian | TGI | 76 µM |
| CN1CCN(CN2C(=O)C3C4C=CC(C3C2=O)C2C(=O)N(CN3CCN(C)CC3)C(=O)C42)CC1 (stereo not given) | SK-OV-3 ovarian | TGI | > 100 µM |
| COc1cc(C2c3cc4c(cc3C(O)C(CO)C2CO)OCO4)cc(OC)c1OC (stereo not given) | SK-OV-3 ovarian | TGI | > 100 µM |

Now look at this entry.
Exercise: Input "COc1ccccc1N1CCN(CCCn2c(=O)c3c(OC)nc(C)cc3c(=O)n2-c2ccccc2)CC1" , output reported TGI.
Key: > 100 µM

----------
The following molecules are listed with their measured TGI values.
Tested on: SK-MEL-5 melanoma
Assay: NCI tumour cell line growth inhibition, 48 h

Example entries begin here.
| Molecule | Value Type | Result |
| --- | --- | --- |
| Cc1[nH]c2ccccc2c1-c1cc(-c2cc(-c3c(C)[nH]c4ccccc34)on2)no1 | TGI | > 100 µM |
| O=c1c2c(-c3ccccc3)onc2n(-c2ccccc2)c(=O)n1-c1ccccc1 | TGI | > 100 µM |
| N#C/C=C(\c1ccc([N+](=O)[O-])cc1)n1nnc2cc(Cl)c(Cl)cc21 | TGI | 3.6 µM |
| CCOc1ccc2c(c1)[n+]([O-])c(-c1ccccc1Cl)c(N)[n+]2[O-] | TGI | > 100 µM |
| O=C1[C@@H]2C3c4ccccc4C([C@@H]2C(=O)N1c1ccccc1)S3(=O)=O | TGI | > 100 µM |
| CC(=O)OC1(C#N)CC2OC1C1C2N=NN1C(=O)OC(C)(C)C (centres undefined) | TGI | > 100 µM |

Exercise: Give TGI; test system SK-MEL-5 melanoma; molecule CC1(C)OC2C(O)CN3CCS[C@H]3C2O1 (some centres undefined)
Key: > 100 µM

Exercise: Write TGI of C[C@@H]1CCC2[C@@H](C)[C@@H](OCCO[C@H]3OC4O[C@@]5(C)CCC6[C@H](C)CCC([C@H]3C)[C@@]46OO5)OC3O[C@@]4(C)CCC1[C@]32OO4 (some centres undefined) ; system used: SK-MEL-5 melanoma
Key: > 39.8 µM

Exercise: State TGI on SK-MEL-5 melanoma. Entry: "O=C(NCCCCN=c1cccccc1NCCCCNC(=O)OCc1ccccc1)OCc1ccccc1"
Key: 33.1 µM

Exercise: State measured TGI of the molecule "CCCNC(=S)/N=C/c1c(O)c2ccccc2[nH]c1=O" with SK-MEL-5 melanoma.
Key: > 100 µM

Exercise: Please respond with reported TGI (system SK-MEL-5 melanoma) for "Cc1csc(Nc2nc(-c3cccc(Br)c3)nc(C(Cl)(Cl)Cl)n2)n1" .
Key: > 100 µM

Exercise: Write TGI of COc1cccc2c1C(=O)c1c(O)c3c(c(O)c1C2=O)C[C@@](O)(C(=O)CO)C[C@@H]3OC1CC(N)C(OC)C(C)O1 (some centres undefined) ; system used: SK-MEL-5 melanoma
Key: 0.189 µM

Exercise: Under SK-MEL-5 melanoma, report TGI for "Nc1nccc2c1ccn2-c1ccc(NC(=O)c2ccc(N3CCOCC3)c(C(F)(F)F)c2)cc1"
Key: 2.28 µM

Exercise: Quote TGI with test system SK-MEL-5 melanoma for COc1ccc(CN(Cc2ccc(OC)cc2)C(=O)CC2(O)C=CCC2)cc1 (centres undefined)
Key: > 100 µM

Exercise: Recall the reported TGI of "C=Cc1c(C)c2cc3nc(cc4[nH]c(cc5nc(cc1[nH]2)C(C)=C5CCC(=O)O)c(CCC(=O)OC)c4C)[C@@]1(C)C3=CC=C(C(=O)OC)[C@H]1C(=O)OC" when tested on SK-MEL-5 melanoma.
Key: 3.15 µM

Exercise: Consider the molecule "CC(C)C1=C(Cc2ccccc2)C(=O)O/C1=C\c1cc(Cl)c(O)c(Cl)c1" tested on SK-MEL-5 melanoma; state its TGI.
Key: 34.5 µM

Exercise: Recall the reported TGI of "O=C(CCc1cc(O)cc(O)c1)NCCc1cc(O)cc(O)c1" on SK-MEL-5 melanoma and write it down.
Key: > 100 µM

Exercise: Report TGI under test system SK-MEL-5 melanoma for "C[C@@H]1C[C@](O)([C@@H](C)Cl)C(=O)O[C@@H]2CCN3CC=C(COC(=O)[C@]1(C)O)[C@H]23" .
Key: > 100 µM

Exercise: Report the value of TGI obtained on SK-MEL-5 melanoma for "Ic1ccc(-n2nnnc2-c2cnoc2-c2ccccc2)cc1" .
Key: > 72.7 µM
